Test: PK Studies in the Rat
Type: in vivo
Settings: plasma, oral 20 mg/Kg

# compound, half-life [h]
rows = [
    ("CCN(CC)Cc1nc2c(O)c(Cl)cc(Cl)c2c(=O)n1CC1CC1 [Compound F4385]", 14.7),
    ("CCNCc1nc2c(O)c(Cl)cc(Cl)c2c(=O)n1CC [Compound F4495]", 4.1),
    ("CN(C)Cc1nc2c(O)c(Cl)cc(Cl)c2c(=O)n1C [Compound F4269]", 5.6),
    ("Br.CCNCc1nc2c(O)c(Cl)cc(Cl)c2c(=O)n1C [Compound F4496]", 6.1),
]

* * *

Test: Metabolism in hepatocytes (predicted EH), dog
Assay type: in vitro ADME
endpoint name: Metabolism (Predicted EH), Hepatocytes: Dog

# compound, readout value
measured = [
    ("CCNCc1nc2c(O)c(Cl)cc(Cl)c2c(=O)n1CC", "Dog = 0.56"),
    ("CNCc1nc2c(O)c(Cl)cc(Cl)c2c(=O)n1C", "Dog = 0.56"),
]

* * *

Test: PK Studies in the Rat
Assay type: in vivo
Conditions: plasma, oral 30 mg/Kg

# compound, Cmax / µM
measured = [
    ("CCn1c(CN(C)C)nc2c(O)c(Cl)cc(Cl)c2c1=O.Cl [Compound F4268]", 10),
]

* * *

Assay: PK Studies in the Rat
Type: in vivo
Settings: plasma, oral 20 mg/Kg, read-out: AUC0-24 h (converted)
Below, each entry is listed alongside its reported AUC(0-t).

# compound, AUC(0-t) (µM·h)
data = [
    ("CCNCc1nc2c(O)c(Cl)cc(Cl)c2c(=O)n1CC [Compound F4495]", 87),
    ("CCN(CC)Cc1nc2c(O)c(Cl)cc(Cl)c2c(=O)n1CC1CC1 [Compound F4385]", 52.1),
    ("CN(C)Cc1nc2c(O)c(Cl)cc(Cl)c2c(=O)n1C [Compound F4269]", 5.5),
    ("Br.CCNCc1nc2c(O)c(Cl)cc(Cl)c2c(=O)n1C [Compound F4496]", 17.8),
]

* * *

Assay: PK Studies in the Rat
Assay type: in vivo
Conditions: plasma, route and dose not given
endpoint name: Cmax (µM)

# compound, endpoint name, readout unit, readout value
records = [
    ("CNCc1nc2c(O)c(Cl)cc(Cl)c2c(=O)n1C", "Cmax", "µM", 6.7),
]

* * *

Below, each entry is listed alongside its reported Kp at 5 min.
Experiment: Blood Brain Barrier Penetration (brain to plasma ratio)
Type: in vivo
Details: male, Swiss Outbred, mouse, brain and plasma, 150 μg/mouse; IV, at 5 min; read-out: Brain to Plasma Ratio (IV) (B:P)
endpoint name: Kp at 5 min

# compound, readout value
measured = [
    ("CN(C)Cc1nc2c(O)c(Cl)cc(Cl)c2c(=O)n1CC1CC1", 3.46),
    ("CCn1c(CN(C)C)nc2c(O)c(Cl)cc(Cl)c2c1=O.Cl", 2.96),
    ("CN(C)Cc1nc2c(O)c(Cl)cc(Cl)c2c(=O)n1C", 2.96),
    ("C#CCN(C)Cc1nc2c(O)c(Cl)cc(Cl)c2c(=O)n1CC1CC1", 0.65),
]

* * *

Assay: Blood Brain Barrier Penetration (brain to plasma ratio)
Type: in vivo
Conditions: male, Swiss Outbred, mouse, brain and plasma; Oral dosing, at 30 min; read-out: Brain to Plasma Ratio (B:P)
endpoint name: Kp at 0.5 h

# compound, endpoint name, readout value
measured = [
    ("Br.CCNCc1nc2c(O)c(Cl)cc(Cl)c2c(=O)n1C", "Kp at 0.5 h", 1.42),
    ("Br.CCn1c(CNC)nc2c(O)c(Cl)cc(Cl)c2c1=O", "Kp at 0.5 h", 0.23),
    ("CCN(CC)Cc1nc2c(O)c(Cl)cc(Cl)c2c(=O)n1CC1CC1", "Kp at 0.5 h", 0.31),
    ("CCNCc1nc2c(O)c(Cl)cc(Cl)c2c(=O)n1CC", "Kp at 0.5 h", 0.65),
]
